These measurements were taken from the emibetuzumab library of Makowski et al. (2022).

B1: VH:VL chains; a variant is named by its letters at X, in order (parent)
chain 1: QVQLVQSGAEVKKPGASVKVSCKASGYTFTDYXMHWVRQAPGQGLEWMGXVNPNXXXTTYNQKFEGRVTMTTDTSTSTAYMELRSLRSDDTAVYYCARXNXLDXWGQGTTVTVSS
chain 2: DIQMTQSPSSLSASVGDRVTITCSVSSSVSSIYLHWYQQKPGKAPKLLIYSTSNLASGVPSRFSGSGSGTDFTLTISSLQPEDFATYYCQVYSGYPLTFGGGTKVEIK

Variants of: B1
protocol: yeast display scFab, FACS + sequencing
outcome measure: non-specific binding call

1. ARAKTSWV    binds
2. VRRRGAAD    binds
3. YRGKDAWY    binds
4. YTETGDSV    no binding
5. VKGKGAWD    binds
6. VKGKDVGY    binds
7. YRATDFVV    binds
8. YRRANFLD    binds
9. SKKRGSGA    binds
10. YRRGGFVV    binds
11. YAGAGAVY    no binding
